Entries and their pEC50
target: HCV NS5B genotype 1b (Hepatitis C virus genotype 1b); construct: The protein was expressed with a 21 amino acid C-terminal deletion to remove transmembrane domain; expressed in transfected cells; host or cells: Huh-7; experiment: 3D-SCREEN assay (NS5B 3D-Screen platform, luciferase reporter gene); format: cell-based; details: read-out: EC50_3DS_NS5B; Table 2, titled Replicon assay results
pEC50: −log10 of the molar value.

In the examples that follow, each entry is paired with its recorded pEC50.
| COMPOUND | pEC50 |
| --- | --- |
| Cc1ccc(N2C(=O)C(O)=C(C(=O)c3ccc(OC(F)(F)F)cc3)C2c2ccc(C(C)C)cc2)cn1 (stereo not drawn) | > 5.00 |
| CCOc1ccc(C2C(C(=O)c3ccc(C(C)C)cc3)=C(O)C(=O)N2c2ccc(C)nn2)cn1 (stereo not drawn) | > 6.00 |

Sample Cc1ccc(N2C(=O)C(O)=C(C(=O)c3ccc(C(C)C)cc3)C2c2ccc(OC(C)C)nc2)nn1.Cl (stereo not drawn) [Example 167, hydrochloride] ; pEC50 observed: > 6.00

Where do these numbers come from? They come from patent US20120128630A1.
